Assign cytotoxicity at 10 µM to each entry below.
method_notes: Toxicity liver stage against HepG2, at 10uM
Assay type: cell-based
Set-up: test concentration 10 uM, cell line HepG2-A16-CD81EGFP
test_parameters: human, HepG2-A16-CD81EGFP cells; read-out: INHIBITION
Field format: number, assumed %, no unit text.

Q. Would you mind telling me what cytotoxicity at 10 µM value was observed for `O=C1NC(=O)c2c3c(nc(O)c21)CCCC3` ?
A. -4.69

Q. Would you mind telling me what cytotoxicity at 10 µM value was observed for `O=C(Cc1ccc2c(c1)OCO2)N[C@@H]1CCNC[C@H]1O` ?
A. 0.635

Q. Would you mind telling me what cytotoxicity at 10 µM value was observed for `Cc1ccc(CN2CCCN(Cc3cscn3)CC2)cc1` ?
A. -8.47

Q. Would you mind telling me what cytotoxicity at 10 µM value was observed for `c1ccc(COC[C@H]2CC[C@H]3[C@H](CCN3Cc3cccs3)O2)nc1` ?
A. -85

Q. Would you mind telling me what cytotoxicity at 10 µM value was observed for `CC(C)N(Cc1ccc(C#N)cc1)Cc1nnsc1Cl` ?
A. 12.6

Q. Would you mind telling me what cytotoxicity at 10 µM value was observed for `CSCCN1CCC(NC(=O)OC(C)(C)C)CC1` ?
A. 12.3

Q. Would you mind telling me what cytotoxicity at 10 µM value was observed for Cc1ccc(-c2nc(CN3CCCC3Cn3cncn3)co2)cc1 (configuration not stated) ?
A. -7.29

Q. Would you mind telling me what cytotoxicity at 10 µM value was observed for CC(C)CN1CC(c2nc(-c3cccc(F)c3)c[nH]2)CC1=O (configuration not stated) ?
A. 4.52

Q. Would you mind telling me what cytotoxicity at 10 µM value was observed for CC1CCCCN1Cc1ccc(-c2ccccc2C(=O)O)cc1 (configuration not stated) ?
A. 6.74

Q. Would you mind telling me what cytotoxicity at 10 µM value was observed for Cc1cc(Nc2cnccn2)nc(C2CCCN(CCO)C2)n1 (configuration not stated) ?
A. -5.87

Q. Would you mind telling me what cytotoxicity at 10 µM value was observed for `CN(C(=O)C1CCOCC1)[C@@H]1CCC[C@@H](N2CCOCC2)[C@@H]1O` ?
A. 2.19

Q. Would you mind telling me what cytotoxicity at 10 µM value was observed for `CC1(C)CC(N(Cc2ccncc2)Cc2cccnc2)CC(C)(C)N1` ?
A. -14.6

Q. Would you mind telling me what cytotoxicity at 10 µM value was observed for Cc1ccc(N2CCCC(NCc3nc(C)c(C)o3)C2)nn1 (configuration not stated) ?
A. -3.18

Q. Would you mind telling me what cytotoxicity at 10 µM value was observed for CC(C)N1CCOC(CC(=O)N2CCCN(Cc3cccs3)CC2)C1 (configuration not stated) ?
A. -12.2

Q. Would you mind telling me what cytotoxicity at 10 µM value was observed for `CCn1nccc1CNc1nc(N)nc2c1nc(C)n2C` ?
A. -8.13

Q. Would you mind telling me what cytotoxicity at 10 µM value was observed for `CSc1nc2ccsc2c(=O)n1CC(=O)NC1CCCC1` ?
A. 0.297

Q. Would you mind telling me what cytotoxicity at 10 µM value was observed for `Cc1ccc(CN2CC[C@H](c3nnc(-c4ccco4)o3)C2)cc1` ?
A. -2.25

Q. Would you mind telling me what cytotoxicity at 10 µM value was observed for CC(NCc1ccsc1)c1ccc(OCc2nccn2C)cc1 (configuration not stated) ?
A. -6.37

Q. Would you mind telling me what cytotoxicity at 10 µM value was observed for `COc1cc(CNCCn2cc(C)cn2)cc2c1OCCO2` ?
A. -9.07

Q. Would you mind telling me what cytotoxicity at 10 µM value was observed for `O=C(C[C@@H]1COC[C@H]2CN(C3CCCC3)C[C@@H]12)N1CCCCO1` ?
A. 7.92

Q. Would you mind telling me what cytotoxicity at 10 µM value was observed for `COCCCn1ccc(NC(=O)NCCn2ccnc2)n1` ?
A. -2.14

Q. Would you mind telling me what cytotoxicity at 10 µM value was observed for `CSc1nc2cc(C)n(CC(=O)NC(C)C)c2c(=O)n1CC(C)C` ?
A. -4.1

Q. Would you mind telling me what cytotoxicity at 10 µM value was observed for `CC(C)c1ccsc1C(=O)N1CCCN(Cc2cscn2)CC1` ?
A. 4.07

Q. Would you mind telling me what cytotoxicity at 10 µM value was observed for CN1CC(=O)N(c2ccsc2)CC12CCN(Cc1nccn1C)C2 (configuration not stated) ?
A. -0.269

Q. Would you mind telling me what cytotoxicity at 10 µM value was observed for CCN(CC)C1CCN(c2ncnc3c2CCN(C(=O)C2CC2)C3)C1 (configuration not stated) ?
A. 1.52

Q. Would you mind telling me what cytotoxicity at 10 µM value was observed for `CC(C)c1cc(C(=O)N2C[C@@H]3CC[C@H]2CN(Cc2cscn2)C3)no1` ?
A. 1.27

Q. Would you mind telling me what cytotoxicity at 10 µM value was observed for CCc1nnsc1C(=O)NCC1CN(CC(C)C)CCO1 (configuration not stated) ?
A. 0.537

Q. Would you mind telling me what cytotoxicity at 10 µM value was observed for Cc1nnn2c1COCC(CNC(=O)c1cnoc1C)C2 (configuration not stated) ?
A. -2.69

Q. Would you mind telling me what cytotoxicity at 10 µM value was observed for `CC(=O)N1CCN(C(=O)CN2CCN(c3cccc(C)c3)CC2)CC1` ?
A. -1.75

Q. Would you mind telling me what cytotoxicity at 10 µM value was observed for `c1ccc(COC[C@H]2CC[C@H]3[C@H](CCN3Cc3cccnc3)O2)nc1` ?
A. -80.2

Q. Would you mind telling me what cytotoxicity at 10 µM value was observed for CC(=O)NCCNC(=O)C(c1ccccc1C)N(C)C (configuration not stated) ?
A. 10.6

Q. Would you mind telling me what cytotoxicity at 10 µM value was observed for `CCc1cc(C(=O)N2CC[C@@H](c3ccc4c(c3)OCO4)[C@H](O)C2)ccn1` ?
A. 1.48

Q. Would you mind telling me what cytotoxicity at 10 µM value was observed for `COc1ccc(OCCN(C)C(=O)c2ccc(OC)cc2O)cc1` ?
A. -143

Q. Would you mind telling me what cytotoxicity at 10 µM value was observed for CC(=O)NCCNC(=O)CN1CCCC1c1c(C)nn(C)c1C (configuration not stated) ?
A. -25.1

Q. Would you mind telling me what cytotoxicity at 10 µM value was observed for NC(=O)C(Cc1ccccc1)NS(=O)(=O)Cc1ccccc1Cl (configuration not stated) ?
A. 7.56

Q. Would you mind telling me what cytotoxicity at 10 µM value was observed for COC(=O)c1sccc1S(=O)(=O)NCCC(O)c1ccoc1 (configuration not stated) ?
A. -2.64

Q. Would you mind telling me what cytotoxicity at 10 µM value was observed for Cn1ncc2c(NCC3CCCN3c3cccnn3)ncnc21 (configuration not stated) ?
A. -11.9

Q. Would you mind telling me what cytotoxicity at 10 µM value was observed for `COCCN1CC[C@H]2OCC[C@@H](C(=O)N3CCCO3)[C@H]2C1` ?
A. 4.55

Q. Would you mind telling me what cytotoxicity at 10 µM value was observed for OCCc1cc(C2CCCN2c2ncccn2)n[nH]1 (configuration not stated) ?
A. 5.56

Q. Would you mind telling me what cytotoxicity at 10 µM value was observed for Cc1ccc(N2CCCC(NCC(=O)Nc3cc(C)no3)C2)nn1 (configuration not stated) ?
A. 3.61

Q. Would you mind telling me what cytotoxicity at 10 µM value was observed for `CCOC(=O)c1cnn(C2CCN(C(=O)CCC(C)C)CC2)c1N` ?
A. -0.12

Q. Would you mind telling me what cytotoxicity at 10 µM value was observed for `Cc1ncsc1C(=O)NC1CCN(Cc2ccc(C(F)(F)F)cc2)CC1` ?
A. 15.5

Q. Would you mind telling me what cytotoxicity at 10 µM value was observed for Cc1nc(O)cc(C2CCN(Cc3ccc(F)c(F)c3)C2)n1 (configuration not stated) ?
A. -11.3

Q. Would you mind telling me what cytotoxicity at 10 µM value was observed for CCc1csc(C2CCCN(C(=O)c3cc(C4CC4)[nH]n3)C2)n1 (configuration not stated) ?
A. -1.22

Q. Would you mind telling me what cytotoxicity at 10 µM value was observed for CC1N(CC2CC2)C(=O)COC12CCN(C(=O)c1cccs1)CC2 (configuration not stated) ?
A. -3.64

Q. Would you mind telling me what cytotoxicity at 10 µM value was observed for Cc1ccc(C2CN(CCCS(=O)(=O)C(C)C)CCO2)c(C)c1 (configuration not stated) ?
A. -2.36

Q. Would you mind telling me what cytotoxicity at 10 µM value was observed for `Cc1noc(C)c1CNC(=O)NCCC(=O)N1CCCc2ccccc21` ?
A. -0.353
